Where do the numbers come from? From BindingDB's records for doi:10.1016/j.bmcl.2008.10.124.

target: Genome polyprotein (Hepatitis C virus genotype 1a (isolate H77), UniProt P27958); assay: Continuous Spectrophotometric Assay; details: pH 6.5; 30 °C
Sequence (P27958 1027-1657 limits assumed): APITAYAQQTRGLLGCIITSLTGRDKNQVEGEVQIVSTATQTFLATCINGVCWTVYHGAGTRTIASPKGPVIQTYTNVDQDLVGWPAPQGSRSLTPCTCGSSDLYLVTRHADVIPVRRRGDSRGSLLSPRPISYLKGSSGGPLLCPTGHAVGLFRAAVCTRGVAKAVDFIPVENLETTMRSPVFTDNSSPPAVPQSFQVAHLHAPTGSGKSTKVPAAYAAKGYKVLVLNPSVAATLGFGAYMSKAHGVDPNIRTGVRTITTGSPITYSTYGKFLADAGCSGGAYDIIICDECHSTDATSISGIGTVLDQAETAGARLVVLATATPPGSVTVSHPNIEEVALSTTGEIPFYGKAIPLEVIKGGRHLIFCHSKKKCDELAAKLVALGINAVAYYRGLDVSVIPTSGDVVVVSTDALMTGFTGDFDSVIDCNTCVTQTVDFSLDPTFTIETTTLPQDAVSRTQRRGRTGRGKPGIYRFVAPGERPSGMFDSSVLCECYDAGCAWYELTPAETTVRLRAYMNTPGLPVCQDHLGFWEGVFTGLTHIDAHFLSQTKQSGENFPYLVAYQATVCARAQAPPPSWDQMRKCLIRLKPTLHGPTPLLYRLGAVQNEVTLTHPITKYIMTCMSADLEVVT
Would you kindly list Ki for each of these compounds?
Numbers only, in nM.

Please review the following examples before continuing.
>  <Compound>
CC(C)(C)NC(=O)N[C@H](C(=O)N1C[C@H]2[C@@H](C1C(=O)N[C@@H](CC1CCC1)B1O[C@@H]3CC4CC(C4(C)C)[C@]3(C)O1)C2(C)C)C(C)(C)C (stereo partly drawn)

>  <Subject of test>
Genome polyprotein (Hepatitis C virus genotype 1a (isolate H77), UniProt P27958)

>  <Measured result>
10

$$$$
>  <Compound>
CC(C)(C)NC(=O)N[C@H](C(=O)N1C[C@H]2[C@@H](C1C(=O)N[C@@H](CC1CCC1)B(O)O)C2(C)C)C(C)(C)C (stereo partly drawn)

>  <Subject of test>
Genome polyprotein (Hepatitis C virus genotype 1a (isolate H77), UniProt P27958)

>  <Measured result>
10

$$$$

Turning now to a further record.
State its Ki on Genome polyprotein (Hepatitis C virus genotype 1a (isolate H77), UniProt P27958): CC[C@H](NC(=O)[C@@H]1[C@@H]2[C@H](CN1C(=O)[C@@H](NC(=O)N[C@H](CN(C)S(C)(=O)=O)C(C)(C)C)C(C)(C)C)C2(C)C)B1O[C@@H]2CC3CC(C3(C)C)[C@]2(C)O1 (stereo partly drawn) 34
